- Test system: NCI-H226 lung
- TEST: NCI-60 one-dose screen, 48 h (100 = growth as untreated, 0 = no growth, -100 = all killed)
- RUN PARAMETERS: 10 µM unless noted
- Experimental: Growth inhibition of the NCI-H226 human Non-Small Cell Lung tumor cell line is measured as a screen for anti-cancer activity. Cells are grown in 96 well plates and exposed to the test compound for 48 hours. Compounds are tested at a single concentration, which is 10^-5 M for most compounds. The reported endpoint is percent growth (GI% or GIPRCNT), where numbers from 0 - 100% represent growth inhibition, and numbers from -100% - 0 represent cell death. […]
Compounds without any hit were thinned out: in the full panel of roughly 83,000, 20% have a hit.
RECORDED ENDPOINT: growth (%)
Please give a number only; it is taken to be in %.

The following compounds have reported results that may help.
Task: Indicate its recorded growth; the compound in question is O=C(Cn1c2c(sc1=O)[C@H]1[C@@H](O)[C@@H](O)[C@H](O)[C@@H]1CS2)N1CCOCC1
Result: 101

Task: Indicate its recorded growth; the compound in question is CCCCCCCCc1ccc(C(=O)Nc2ccc(C)cc2C(=O)O)cc1C
Result: 89.4

Task: Indicate its recorded growth; the compound in question is COc1ccc(-c2nc3cc(C)ccc3n2CC(=O)N=Nc2c(O)[nH]c3ccccc23)cc1
Result: -35.5

Task: Indicate its recorded growth; the compound in question is Nc1nc(-c2ccccc2)c(N=Nc2ccc(Cl)cc2[N+](=O)[O-])s1
Result: 77.4

Task: Indicate its recorded growth; the compound in question is Cn1cc(-c2nc(N)nnc2-c2c[nH]c3ccc(Br)cc23)c2cc(Br)cnc21
Result: 11.9

Task: Indicate its recorded growth; the compound in question is COc1cc(-c2cc(-c3cccc(OCC(=O)O)c3)[nH]c(=O)c2C#N)cc(OC)c1OC
Result: 98.2

Task: Indicate its recorded growth; the compound in question is Cc1ccc(S(=O)(=O)c2nc(S(=O)(=O)c3ccc(C)cc3)c(N3CCN(C)CC3)s2)cc1
Result: 67.3

Task: Indicate its recorded growth; the compound in question is CC(=O)c1cc(C(=O)c2ccccc2)n2c1ccc1ccccc12
Result: 94

---
Task: Indicate its recorded growth; the compound in question is O=c1[nH]c2ccccc2cc1CSc1cccc(Nc2nccc(-c3ccc4ccccc4c3)n2)c1
Result: 80.7

Task: Indicate its recorded growth; the compound in question is COc1cc2c(c(OC)c1OC)C(=O)CC(c1cccc(NC(=O)c3cccc(NC(=O)[C@H](C)NC(=O)OC(C)(C)C)c3)c1)O2 (some centres not stated)
Result: 53.1

Task: Indicate its recorded growth; the compound in question is CCOC(=O)C(N=Nc1ccc(S(=O)(=O)N=C(N)N)cc1)C(C)=O (configuration not stated)
Result: 95.1

Task: Indicate its recorded growth; the compound in question is Cc1c(C(=O)NNC(=O)c2ccc(Cl)cc2)nnn1-c1ccc(Cl)cc1
Result: 95.3

Task: Indicate its recorded growth; the compound in question is Cc1ccc(-c2nnc3ccc(N/N=C/c4ccccc4)nn23)cc1
Result: 98

====

- System: A549/ATCC NSCLC
- TEST: NCI-60 one-dose screen, 48 h (100 = growth as untreated, 0 = no growth, -100 = all killed)
- RUN PARAMETERS: 10 µM unless noted
About 83,000 compounds went through this panel and 20% of them were active in at least one assay; those are over-represented in the sample as a whole.
# key: entry, value: growth
Please give a number only; it is taken to be in %.

The following compounds have reported results that may help.
Task: Indicate its recorded growth; the compound in question is N/C(=N\c1nc2ccccc2s1)NC(=O)Nc1ccc(Cl)cc1Cl
Result: -85.4

Task: Indicate its recorded growth; the compound in question is O=C(NNc1nc2cc(F)ccc2n2c(CN3CCCCC3)ccc12)c1cnccn1
Result: -76.8

Task: Indicate its recorded growth; the compound in question is CN1CCN(Cc2ccc(C(=O)Nc3cccc(C#Cc4cccc5[nH]nc(N)c45)c3)cc2C(F)(F)F)CC1
Result: -88.8

---
Task: Indicate its recorded growth; the compound in question is C#CCOc1cc(N(CC)CC)ccc1C(C(=O)NC(C)(C)C)N(C(=O)C1CCc2cc(F)ccc2O1)c1ccc(F)cc1 (stereo unspecified)
Result: 39.8

Task: Indicate its recorded growth; the compound in question is Cc1ccc([C@H]2C(C(=O)c3ccc(Cl)cc3)C3(N[C@@H]2c2ccccc2)C(=O)Nc2ccccc23)cc1 (stereo partly specified)
Result: 25.9

Task: Indicate its recorded growth; the compound in question is Cc1cnc(C(=O)NNc2nc3cc(F)ccc3n3c(C(=O)N4CC5CC(C4)N5)ccc23)cn1
Result: 25.4

Task: Indicate its recorded growth; the compound in question is C#CCOc1cc(N(CC)CC)ccc1C(C(=O)NC(C)(C)C)N(C(=O)C1CCc2cc(F)ccc2O1)c1ccccc1Br (stereo unspecified)
Result: 54.2

Task: Indicate its recorded growth; the compound in question is Cc1cc(C)cc(NC(=O)Cn2cc(COn3nnc4ccccc43)nn2)c1
Result: 107

Task: Indicate its recorded growth; the compound in question is O=C(Cn1c2c(sc1=O)[C@H]1[C@@H](O)[C@@H](O)[C@H](O)[C@@H]1CS2)N1CCOCC1
Result: 106

Task: Indicate its recorded growth; the compound in question is COc1cc2oc(-c3cccc(NC(=O)[C@H](CC(N)=O)NC(=O)OC(C)(C)C)c3)cc(=O)c2c(OC)c1OC
Result: 95

Task: Indicate its recorded growth; the compound in question is COc1c(F)ccc(C(=O)Nc2ccc3nc(NC(=O)C4CCCN(S(=O)(=O)c5cccc(C(F)(F)F)c5)C4)sc3c2)c1F (stereo unspecified)
Result: 79.4

Task: Indicate its recorded growth; the compound in question is CSc1ccccc1NC(=O)c1ccc2nn(/C(C#N)=C/c3ccccn3)nc2c1
Result: 0.0722

Task: Indicate its recorded growth; the compound in question is Cc1ccc(NC(=O)CN2CCN(c3ncnc4c3cnn4-c3ccccc3)CC2)cc1
Result: 89.1

Task: Indicate its recorded growth; the compound in question is COc1cc2oc(-c3cccc(C(=O)Nc4ccc(Cl)cc4)c3)cc(=O)c2c(OCCNC(=O)[C@H](CO)NC(=O)OC(C)(C)C)c1OC
Result: 23.8

Task: Indicate its recorded growth; the compound in question is Cc1ccc(S(=O)(=O)c2nc(S(=O)(=O)c3ccc(C)cc3)c(N3CCC(O)CC3)s2)cc1
Result: 62.1

Task: Indicate its recorded growth; the compound in question is COc1cc2c(c(OC)c1OC)C(=O)CC(c1cccc(NC(=O)c3cc([N+](=O)[O-])ccc3Cl)c1)O2 (stereo unspecified)
Result: 35.6

Task: Indicate its recorded growth; the compound in question is O=C1CCCc2cc(OCC(=O)N3CCCCC3)ccc2N1
Result: 113

Task: Indicate its recorded growth; the compound in question is Cn1cc(-c2cc(N)n3nc(-c4cn(C)c5ccc(Cl)cc45)cc3n2)c2ccccc21
Result: 107

Task: Indicate its recorded growth; the compound in question is N#Cc1c(-c2cccnc2)cc(-c2ccc3ccccc3c2)[nH]c1=O
Result: 85.1

Task: Indicate its recorded growth; the compound in question is COc1ccc(-c2ccc(SCC(=O)NCCc3ccc(S(N)(=O)=O)cc3)nn2)cc1
Result: 86.6

Task: Indicate its recorded growth; the compound in question is N#Cc1c(-c2ccc(Br)cc2)nc2n[nH]c(-c3ccc(Br)cc3)c2c1-c1ccc(C(F)(F)F)cc1
Result: 27.4

====

- Test system: RPMI-8226 leukemia
- TEST: NCI-60 one-dose screen, 48 h
- RUN PARAMETERS: 10 µM unless noted
The panel holds about 83,000 compounds, 20% with a hit somewhere; the sample as a whole holds those more often. Activity calls are given as the source filed them. The calls were made as follows: active = growth percent below 10; inactive = the rest.
Respond only with the outcome that fits, drawn from active, inactive

Task: Write down the call the test reported for this compound. Item: CCCSc1nc(Nc2ccc(S(N)(=O)=O)cc2)c(C#N)c(-c2ccc(Cl)cc2)n1
Result: inactive

---
Task: Write down the call the test reported for this compound. Item: Cn1cc(NC(=O)c2cc(NC(=O)c3ccc(/C=C/c4ccccc4)cc3)cn2C)cc1C(=O)NCCCN1CCOCC1
Result: active

Task: Write down the call the test reported for this compound. Item: C=C1CC[C@@H]2[C@]3(C)COC(c4cn(-c5ccccc5)nc4-c4ccccc4)O[C@@H]3CC[C@@]2(C)[C@@H]1C/C=C1/C(=O)OC[C@H]1O (stereo partly specified)
Result: active

Task: Write down the call the test reported for this compound. Item: O=C(Nc1cccc(-n2cnc3cc(-c4ccc(O)cc4)ccc32)c1)C1CC1
Result: inactive

Task: Write down the call the test reported for this compound. Item: CN1CCN(c2ccc(C(=O)/C=C/c3ccc(Br)cc3)cc2)CC1
Result: active

Task: Write down the call the test reported for this compound. Item: N#Cc1ccc(/C=N/NC(=O)c2[nH]c3ccc(Br)cc3c2-c2ccccc2)o1
Result: active
